assay: thallium influx changes without GIRK channels – cell-based, HEK-293 rmGlu8, no GIRK, thallium flux, counter-screen for GIRK activator project, confirmation (AID 623868); conditions: thallium flux fluorescence, at 10 µM, actives lie on both sides, codes: 1 enhancer, -1 blocker, 0 none, thallium stimulus containing EC20 glutamate
About 760 (36%) of roughly 2,100 compounds were called active.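 Rule for the calls: active = thallium-flux fluorescence traces judged by eye to show enhanced or reduced glutamate response, manual score 1 or -1, so both directions (some results past the limit were not filed as active); inactive = the rest, including fluorescent or raised-baseline compounds.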 The list is a sample of the results.
Outcomes you can answer with include only these: Yes for active, No for inactive

- COC(=O)c1sc(NC(=S)NC(=O)c2ccccc2)nc1C: Yes
- S=C(Nc1ccc(Cl)cc1)c1nc2ccccc2[nH]1: Yes
- Cc1oncc1C(=S)Nc1ccccc1: No

Exercise: What classification did CCCCSc1nc(N)c(NC(=O)c2ccco2)c(=O)[nH]1 end up with in this test?
Key: No

Exercise: What classification did Cc1nnc(NC(=O)c2ccco2)s1 end up with in this test?
Key: No
